Provide the recorded pIC50 for the entries that follow.
# assay_summary: Cytotoxicity against human KB cells
# Format: toxicity, cell-based
Give bare numbers, as −log10 of the molar value.

Cc1ccc2c(n1)[C@H]([C@@H](C)C(=O)Nc1ccc(Cl)c(-c3ccccn3)c1)CC[C@H]2C: 4.82

With those in mind, consider the next compound.
Value of pIC50 reported for the compound C[C@H]1[C@@H](CC(=O)Nc2ccc(Cl)c(-c3ccccn3)c2)O[C@@H]2O[C@@]3(C)CC[C@H]4[C@H](C)CC[C@@H]1[C@@]24OO3 is 5.18

----------
# assay_summary: Cmax in Sprague-Dawley rat at 3 mg/kg, po
# Type: ADME, organism-based
# Set-up: dose 3 mg/kg, route oral
# condition_notes: in vivo
metric_name: Cmax (ng/mL)
Numbers only, in ng/mL.

Value of Cmax reported for the molecule Cc1ccc2c(n1)[C@H]([C@@H](C)C(=O)Nc1ccc(Cl)c(-c3nc4ccccc4n3C)c1)CC[C@H]2C is 799

----------
# assay_summary: Tmax in Sprague-Dawley rat at 3 mg/kg, po
# Type: ADME, organism-based
# condition_notes: in vivo
metric_name: Tmax (min)
Give bare numbers, in min.

Value of Tmax reported for the molecule Cc1ccc2c(n1)[C@H]([C@@H](C)C(=O)Nc1ccc(Cl)c(-c3nc4ccccc4n3C)c1)CC[C@H]2C is 15

----------
# assay_summary: Oral bioavailability in Sprague-Dawley rat at 3 mg/kg
# Assay type: ADME, organism-based
# condition_notes: in vivo
metric_name: bioavailability

Value of bioavailability reported for the molecule Cc1ccc2c(n1)[C@H]([C@@H](C)C(=O)Nc1ccc(Cl)c(-c3nc4ccccc4n3C)c1)CC[C@H]2C is 27.4%

----------
# assay_summary: Half life in Sprague-Dawley rat at 3 mg/kg, po
# Assay type: ADME, organism-based
# condition_notes: in vivo
metric_name: half-life
# number then unit; no other words

Value of half-life reported for the compound Cc1ccc2c(n1)[C@H]([C@@H](C)C(=O)Nc1ccc(Cl)c(-c3nc4ccccc4n3C)c1)CC[C@H]2C is 1.4 h

----------
# system_tested: UniProt P56726
# assay_summary: Inhibition of Smo-mediated Hh signalling pathway in mouse Shh Light2 cells by Gli-luciferase reporter gene assay
metric_name: IC50 (nM)
Numbers only, in nM.

Some solved cases for reference:
C[C@@H]1CC[C@@H]2[C@]34OO[C@](C)(CC[C@@H]13)OC4O[C@]2(C)C(=O)Nc1ccc(Cl)c(-c2ccccn2)c1 (some centres not stated): 180
C[C@H]1[C@@H](CC(=O)Nc2ccc(Cl)c(-c3ccccn3)c2)O[C@@H]2O[C@@]3(C)CC[C@H]4[C@H](C)CC[C@@H]1[C@@]24OO3: 241
Cc1ccc2c(n1)[C@H]([C@@H](C)C(=O)Nc1ccc(Cl)c(-c3nnc(-c4ccnn4C)o3)c1)CC[C@H]2C: 588

Cc1ccc2c(n1)[C@H]([C@@H](C)C(=O)Nc1ccc(Cl)c(-c3nc4cc(OC(F)(F)F)ccc4n3C)c1)CC[C@H]2C tested on UniProt P56726 gave IC50: 84.5

----------
Provide the recorded IC50 for the entries that follow.
# system_tested: Protein smoothened (Mus musculus, UniProt P56726)
# Sequence (P56726 whole entry): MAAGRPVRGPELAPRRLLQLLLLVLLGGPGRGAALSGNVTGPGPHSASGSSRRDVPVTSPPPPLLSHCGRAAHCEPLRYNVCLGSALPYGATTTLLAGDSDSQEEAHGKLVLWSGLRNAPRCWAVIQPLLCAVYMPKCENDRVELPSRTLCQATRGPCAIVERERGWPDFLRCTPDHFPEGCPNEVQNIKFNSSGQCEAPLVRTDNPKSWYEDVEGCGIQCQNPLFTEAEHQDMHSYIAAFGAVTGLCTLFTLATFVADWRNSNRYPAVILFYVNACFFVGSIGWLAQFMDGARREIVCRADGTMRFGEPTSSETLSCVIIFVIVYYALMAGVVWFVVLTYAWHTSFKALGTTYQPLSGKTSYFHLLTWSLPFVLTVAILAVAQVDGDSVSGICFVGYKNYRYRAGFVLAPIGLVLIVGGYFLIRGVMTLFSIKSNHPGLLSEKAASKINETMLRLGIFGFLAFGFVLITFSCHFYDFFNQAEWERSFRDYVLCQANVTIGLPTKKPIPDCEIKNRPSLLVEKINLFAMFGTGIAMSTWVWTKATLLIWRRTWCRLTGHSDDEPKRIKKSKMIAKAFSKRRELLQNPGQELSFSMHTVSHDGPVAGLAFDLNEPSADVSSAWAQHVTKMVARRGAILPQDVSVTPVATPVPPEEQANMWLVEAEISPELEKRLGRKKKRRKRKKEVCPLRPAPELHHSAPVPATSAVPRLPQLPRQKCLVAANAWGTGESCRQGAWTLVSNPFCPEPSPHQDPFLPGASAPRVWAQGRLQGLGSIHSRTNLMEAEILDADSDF
# assay_summary: Inhibition of Smo-mediated Hh signalling pathway in mouse Shh Light2 cells by Gli-luciferase reporter gene assay

CC(=O)Nc1nc2c(s1)C[C@@H]1[C@H](C2)[C@H]([C@@H](C)C(=O)Nc2ccc(Cl)c(-c3ccccn3)c2)CC[C@H]1C: > 1000 nM
Cc1nc2c(s1)C[C@@H]1[C@H](C2)[C@H]([C@@H](C)C(=O)Nc2ccc(Cl)c(-c3ccccn3)c2)CC[C@H]1C: > 1000 nM

With those in mind, consider the next compound.
Value of IC50 reported for the compound Cc1ccc2c(n1)[C@H]([C@@H](C)C(=O)Nc1ccc(Cl)c(-c3ccc(N4C[C@@H](C)O[C@@H](C)C4)cn3)c1)CC[C@H]2C is > 1000 nM
